SYSTEM: GST-CBP(1081-1197) bromodomain (Homo sapiens (Human), UniProt Q92793)
Sequence (Q92793 1081-1197): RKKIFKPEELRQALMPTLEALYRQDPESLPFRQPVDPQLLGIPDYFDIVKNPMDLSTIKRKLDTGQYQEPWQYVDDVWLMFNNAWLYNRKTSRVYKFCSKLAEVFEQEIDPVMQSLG
PROCEDURE_SUMMARY: CBP AlphaScreen Assay
ASSAY_SETUP: binding to biotin-H4(1-21) Ac-K5/8/12/16 peptide
pIC50: −log10 of the molar value.
Values of pIC50 greater than or equal to 7 map to y; values below map to n.

compound=CNC(=O)N1CCn2cnc(-c3ccc4c(c3)c(-c3cnn(C)c3)nn4C)c2C1 class_label=y
compound=CC(=O)N1CCn2c(C3CC3)nc(-c3ccnc4c3cc(-c3cnn(C)c3)n4C)c2C1 class_label=n
compound=CNC(=O)N1CCn2c(C3CC3)nc(-c3cccc4cc(-c5cn(C)nc5C)ncc34)c2C1 class_label=y
compound=CNC(=O)N1CCn2c(C3CCC(F)(F)CC3)nc(-c3c(F)ccc4cc(-c5cn(C)nc5C)ncc34)c2C1 class_label=y
compound=CNC(=O)N1CCn2c(C3CC3)nc(-c3cccc4nc(-c5cnc(C)s5)c(C#N)cc34)c2C1 class_label=y
compound=CNC(=O)N1CCn2c(C3CC3)nc(-c3cncc4cc(-c5cnn(C)c5)c(C(F)F)cc34)c2C1 class_label=y
compound=CC(=O)N1CCn2c(C3CC3)nc(N3CCCc4cc(-c5cnn(CC6CC6)c5)ccc43)c2C1 class_label=n
compound=CC(=O)N1CCn2c(C3CC3)nc(N3CCCc4cc(-c5cnn(CCN6CCOCC6)c5)ccc43)c2C1 class_label=n
compound=CNC(=O)N1CCn2c(C3CC3)nc(-c3c[nH]c4cc(-c5cnn(C)c5)ncc34)c2C1 class_label=y
compound=CNC(=O)N1CCn2c(C3CCC(F)(F)CC3)nc(-c3cccc4cc(N5CCOCC5)ncc34)c2C1 class_label=y
compound="CC(=O)N1CCn2c(C3CC3)nc(-c3ccc4c(c3)c(-c3cnn(C)c3)nn4C)c2C1 [Example 44]" class_label=y
compound=CC(=O)N1CCn2c(C3CC3)nc(-c3ccc4nn(C)c(-c5cnn(C)c5)c4c3F)c2C1 class_label=n
compound=CNC(=O)N1CCn2c(C3CCOCC3)nc(-c3cccc4nc(-c5cnn(C)c5)c(C(F)F)cc34)c2C1 class_label=y
compound=CC(=O)N1CCn2c(C3CN(C)C3)nc(-c3ccc4c(c3)c(-c3cnn(C)c3)nn4C)c2C1 class_label=n
